Recorded measurements of pIC50, one per entry
target: Active Human ERK2 (hERK2) (Homo sapiens (Human)); assay: Active Human ERK2 (hERK2) Activity Assay (IMAP-FP); type: biochemical; details: phosphorylated active hERK2, 30 μM ATP; average; read-out: ERK 2 Human average IC50
By convention, pIC50 is the negative base-10 log of a molar concentration.

[
  {
    "COMPOUND": "Cc1cc(-c2n[nH]c3cc(NC(=O)NCc4ncc(F)cc4Cl)ncc23)ccn1 [Example 517]",
    "MEASUREMENT": 9.12
  }
]

Attention now shifts to the item below.
Qu. Consider the compound shown here: COC(C)CNC(=O)Nc1cc2[nH]nc(-c3ccnc(C)c3)c2cn1 (centres unmarked) [Example 585] What is its recorded pIC50?
Ans. 8.90

* * *

Target: Active Human ERK2 (hERK2) (Homo sapiens (Human), UniProt P28482)
Sequence (P28482 whole entry): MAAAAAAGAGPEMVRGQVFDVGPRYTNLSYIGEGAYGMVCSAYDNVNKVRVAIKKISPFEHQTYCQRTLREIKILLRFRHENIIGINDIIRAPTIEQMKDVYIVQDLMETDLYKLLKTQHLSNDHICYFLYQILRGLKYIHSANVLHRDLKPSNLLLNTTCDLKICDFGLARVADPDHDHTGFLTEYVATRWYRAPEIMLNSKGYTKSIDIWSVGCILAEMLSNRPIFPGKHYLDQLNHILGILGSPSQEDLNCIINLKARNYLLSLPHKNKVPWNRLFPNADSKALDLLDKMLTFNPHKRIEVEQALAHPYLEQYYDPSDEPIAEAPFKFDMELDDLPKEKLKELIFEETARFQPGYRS
Test: Active Human ERK2 (hERK2) Activity Assay (IMAP-FP)
Format: biochemical
Conditions: phosphorylated active hERK2, 30 μM ATP; average; read-out: ERK 2 Human average IC50
Experimental: Assays Active Human ERK2 (hERK2) Activity Assay: Activated ERK2 activity was determined in an IMAP-FP assay (Molecular Devices). […] The final reaction in each well of 25 μL consists of 0.5 nM hERK2, 900 nM unlabeled peptide, 80 nM labeled-peptide, and 30 μM ATP. […] Plates were read on EnVision reader after 60 minutes binding equilibration using Fluorescence Polarization protocol (Perkin Elmer).
MEASURED_QUANTITY: pIC50
By convention, pIC50 is the negative base-10 log of a molar concentration.

See these solved cases before continuing.
[
  {
    "COMPOUND": "CCO[C@H]1CN(C)C[C@@H]1NC(=O)Nc1cc2[nH]nc(-c3ccc(F)cc3)c2cn1",
    "pIC50": 9.28
  },
  {
    "COMPOUND": "C[C@@H](NC(=O)Nc1cc2[nH]nc(C(=O)NCC3CCN(C4CC4)C3)c2cn1)c1ccccc1 (some centres unmarked)",
    "pIC50": 7.87
  },
  {
    "COMPOUND": "Cc1cc(-c2n[nH]c3cc(NC(=O)N[C@@H](C)c4ccc(F)c(F)c4)ncc23)ccn1",
    "pIC50": 7.47
  },
  {
    "COMPOUND": "C[C@@H](NC(=O)Nc1cc2[nH]nc(C(N)C(F)(F)F)c2cn1)c1ccccc1 (some centres unmarked)",
    "pIC50": 6.60
  },
  {
    "COMPOUND": "CCCC(=O)c1n[nH]c2cc(NC(=O)N[C@H](COC)c3ccccc3)ncc12",
    "pIC50": 7.57
  },
  {
    "COMPOUND": "C[C@@H](NC(=O)Nc1cc2[nH]nc(-c3ccnc(F)c3)c2cn1)c1ccc(F)cc1",
    "pIC50": 9.21
  },
  {
    "COMPOUND": "Cc1cc(-c2n[nH]c3cc(NC(=O)N[C@H]4CN(C)C[C@@H]4c4ccccc4C)ncc23)ccn1 [Example 207]",
    "pIC50": 9.27
  }
]

Attention now shifts to the item below.
Qu. Item: Cc1cc(-c2n[nH]c3cc(NC(=O)N[C@H](CN(C)C)c4ccccc4)ncc23)ccn1 Test system: Active Human ERK2 (hERK2) (Homo sapiens (Human), UniProt P28482) Read-out: pIC50 Value: ?
Ans. 9.54

Hey, just so you know, these numbers are from patent US9023865B2.
